- target or system: Integrin alpha-V/beta-3 (Homo sapiens, UniProt P05106+P06756)
- assay info: Displacement of [125I]echistatin from human integrin alpha-V-beta-3 receptor high affinity state by solid phase assay relative to control
- Type: protein-complex assay
- Design: concentration or dose not given beside the values
- condition notes: concentration not given here
*1 amine or outer side, *2 acyl side, *3 side chain or, on linkers, in order; H or OH if unused. Where a SMILES comes first, the peptide text is derived from it. Bridges are numbered along the chain shown (N, C = ends). [ ]: non-standard residue; d: D form. Pro(trans-4-NH2) = O=C([C@@H]1C[C@@H](N[*:3])CN1[*:1])[*:2]
measurement name: inhibition

[[record]]
molecule = "N=C(N)NCCC[C@@H]1NC(=O)[C@@H]2C[C@H](CN2)NC(=O)[C@H](CC(=O)O)NC(=O)CNC1=O (H-[Pro(trans-4-NH2)]RGD; lactam 1-C)"
target_or_system = "Integrin alpha-V/beta-3 (Homo sapiens, UniProt P05106+P06756)"
observed_value = "84.5%"

[[record]]
molecule = "CCC(=O)N1C[C@@H]2C[C@H]1C(=O)N[C@@H](CCCNC(=N)N)C(=O)NCC(=O)N[C@@H](CC(=O)O)C(=O)N2"
target_or_system = "Integrin alpha-V/beta-3 (Homo sapiens, UniProt P05106+P06756)"
observed_value = "42.1%"

[[record]]
molecule = "N=C(N)NCCC[C@@H]1NC(=O)[C@@H]2C[C@H](CN2C(=O)c2ccccc2)NC(=O)[C@H](CC(=O)O)NC(=O)CNC1=O"
target_or_system = "Integrin alpha-V/beta-3 (Homo sapiens, UniProt P05106+P06756)"
observed_value = "31.6%"

[[record]]
molecule = "CCCCCCCN1C[C@@H]2C[C@H]1C(=O)N[C@@H](CCCNC(=N)N)C(=O)NCC(=O)N[C@@H](CC(=O)O)C(=O)N2"
target_or_system = "Integrin alpha-V/beta-3 (Homo sapiens, UniProt P05106+P06756)"
observed_value = "53.7%"

[[record]]
molecule = "N=C(N)NCCC[C@@H]1NC(=O)[C@@H]2C[C@@H](CN2C(=O)c2ccccc2)NC(=O)[C@H](CC(=O)O)NC(=O)CNC1=O"
target_or_system = "Integrin alpha-V/beta-3 (Homo sapiens, UniProt P05106+P06756)"
observed_value = "57.8%"


* * *

- target or system: Integrin alpha-V/beta-3 (Homo sapiens, UniProt P05106+P06756)
- assay info: Inhibition of human integrin alpha-v-beta-3 receptor mediated WM115 cell adhesion to vitronectin
- Format: cell-based, WM-115
- Sequence (P05106 27-788 limits assumed): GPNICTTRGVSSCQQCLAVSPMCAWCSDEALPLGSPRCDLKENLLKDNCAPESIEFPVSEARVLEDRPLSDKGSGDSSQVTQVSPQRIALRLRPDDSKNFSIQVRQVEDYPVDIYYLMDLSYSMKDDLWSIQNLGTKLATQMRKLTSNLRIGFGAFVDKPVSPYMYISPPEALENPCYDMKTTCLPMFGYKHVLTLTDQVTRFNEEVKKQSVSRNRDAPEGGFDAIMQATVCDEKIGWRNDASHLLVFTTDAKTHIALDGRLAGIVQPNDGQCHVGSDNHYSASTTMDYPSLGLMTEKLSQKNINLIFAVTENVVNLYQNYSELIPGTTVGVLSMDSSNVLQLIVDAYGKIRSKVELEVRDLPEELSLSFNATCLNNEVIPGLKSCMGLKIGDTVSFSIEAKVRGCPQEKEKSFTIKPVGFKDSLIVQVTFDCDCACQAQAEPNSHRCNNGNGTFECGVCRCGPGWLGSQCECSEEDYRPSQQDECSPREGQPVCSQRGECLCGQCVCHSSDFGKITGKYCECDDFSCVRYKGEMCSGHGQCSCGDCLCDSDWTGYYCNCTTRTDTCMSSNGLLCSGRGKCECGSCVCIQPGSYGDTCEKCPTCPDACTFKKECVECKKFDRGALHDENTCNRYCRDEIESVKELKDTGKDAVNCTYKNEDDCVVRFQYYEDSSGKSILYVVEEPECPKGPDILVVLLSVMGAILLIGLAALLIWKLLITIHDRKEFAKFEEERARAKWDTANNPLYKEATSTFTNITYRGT
- Sequence (P06756 31-889 limits assumed): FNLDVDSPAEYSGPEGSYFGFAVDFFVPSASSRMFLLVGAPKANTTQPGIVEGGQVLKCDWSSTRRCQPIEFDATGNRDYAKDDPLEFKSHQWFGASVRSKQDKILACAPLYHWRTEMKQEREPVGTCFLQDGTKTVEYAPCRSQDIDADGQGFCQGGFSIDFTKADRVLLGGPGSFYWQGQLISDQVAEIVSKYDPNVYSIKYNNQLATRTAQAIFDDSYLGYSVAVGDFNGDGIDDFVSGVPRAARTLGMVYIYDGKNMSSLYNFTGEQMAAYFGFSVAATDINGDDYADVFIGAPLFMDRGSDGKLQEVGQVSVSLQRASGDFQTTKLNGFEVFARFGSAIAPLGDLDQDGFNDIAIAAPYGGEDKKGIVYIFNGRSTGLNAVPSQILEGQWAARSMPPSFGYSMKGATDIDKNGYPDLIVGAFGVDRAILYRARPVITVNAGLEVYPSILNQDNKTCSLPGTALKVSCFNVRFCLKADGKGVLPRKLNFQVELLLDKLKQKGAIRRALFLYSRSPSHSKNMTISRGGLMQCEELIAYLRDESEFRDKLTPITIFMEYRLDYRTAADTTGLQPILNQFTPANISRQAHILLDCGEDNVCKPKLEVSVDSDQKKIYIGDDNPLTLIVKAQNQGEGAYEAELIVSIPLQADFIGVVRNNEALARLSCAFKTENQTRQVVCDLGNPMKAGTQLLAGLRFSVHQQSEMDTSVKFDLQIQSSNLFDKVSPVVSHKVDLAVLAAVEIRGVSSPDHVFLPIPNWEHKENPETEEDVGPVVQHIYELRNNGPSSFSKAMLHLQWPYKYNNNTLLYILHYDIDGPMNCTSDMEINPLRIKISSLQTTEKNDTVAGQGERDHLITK
- Sequence (P06756 891-1048 limits assumed): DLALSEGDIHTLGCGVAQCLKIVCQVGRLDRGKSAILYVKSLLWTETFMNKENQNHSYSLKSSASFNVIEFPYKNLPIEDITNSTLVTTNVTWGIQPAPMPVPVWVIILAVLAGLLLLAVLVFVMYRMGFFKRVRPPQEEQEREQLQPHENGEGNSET
measurement name: IC50

[[record]]
smiles_record = "COC(=O)[C@H]1[C@@H]2NC(=O)[C@H](CC(=O)O)NC(=O)CNC(=O)[C@H](CCCNC(=N)N)NC(=O)[C@H](C(C)C)NC(=O)[C@@H]21"
measurement_name = "IC50"
observed_value = "20 nM"


* * *

- target or system: Integrin alpha-5/beta-1 (Homo sapiens, UniProt P05556+P08648)
- Sequence (P05556 21-798 limits assumed): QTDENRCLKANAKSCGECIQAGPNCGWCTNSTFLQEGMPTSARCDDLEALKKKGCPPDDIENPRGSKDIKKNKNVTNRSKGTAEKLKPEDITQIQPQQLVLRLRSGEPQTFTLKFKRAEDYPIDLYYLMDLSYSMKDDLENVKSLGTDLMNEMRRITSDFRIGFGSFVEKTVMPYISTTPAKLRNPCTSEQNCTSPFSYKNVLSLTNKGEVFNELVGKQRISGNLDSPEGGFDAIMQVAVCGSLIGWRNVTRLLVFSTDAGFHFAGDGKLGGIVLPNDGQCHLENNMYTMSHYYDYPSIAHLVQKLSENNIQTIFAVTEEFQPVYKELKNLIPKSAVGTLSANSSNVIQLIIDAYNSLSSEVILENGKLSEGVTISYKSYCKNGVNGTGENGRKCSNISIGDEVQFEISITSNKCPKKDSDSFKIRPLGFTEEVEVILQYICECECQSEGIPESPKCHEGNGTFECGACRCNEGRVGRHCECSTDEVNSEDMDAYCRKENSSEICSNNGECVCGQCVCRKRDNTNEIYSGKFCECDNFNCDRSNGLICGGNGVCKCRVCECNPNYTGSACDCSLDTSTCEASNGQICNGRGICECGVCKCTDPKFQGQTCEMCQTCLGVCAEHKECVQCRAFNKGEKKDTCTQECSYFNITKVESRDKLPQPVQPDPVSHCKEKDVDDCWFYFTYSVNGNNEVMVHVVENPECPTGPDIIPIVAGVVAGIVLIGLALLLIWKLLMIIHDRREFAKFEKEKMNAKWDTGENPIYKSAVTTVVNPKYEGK
- Sequence (P08648 42-894 limits assumed): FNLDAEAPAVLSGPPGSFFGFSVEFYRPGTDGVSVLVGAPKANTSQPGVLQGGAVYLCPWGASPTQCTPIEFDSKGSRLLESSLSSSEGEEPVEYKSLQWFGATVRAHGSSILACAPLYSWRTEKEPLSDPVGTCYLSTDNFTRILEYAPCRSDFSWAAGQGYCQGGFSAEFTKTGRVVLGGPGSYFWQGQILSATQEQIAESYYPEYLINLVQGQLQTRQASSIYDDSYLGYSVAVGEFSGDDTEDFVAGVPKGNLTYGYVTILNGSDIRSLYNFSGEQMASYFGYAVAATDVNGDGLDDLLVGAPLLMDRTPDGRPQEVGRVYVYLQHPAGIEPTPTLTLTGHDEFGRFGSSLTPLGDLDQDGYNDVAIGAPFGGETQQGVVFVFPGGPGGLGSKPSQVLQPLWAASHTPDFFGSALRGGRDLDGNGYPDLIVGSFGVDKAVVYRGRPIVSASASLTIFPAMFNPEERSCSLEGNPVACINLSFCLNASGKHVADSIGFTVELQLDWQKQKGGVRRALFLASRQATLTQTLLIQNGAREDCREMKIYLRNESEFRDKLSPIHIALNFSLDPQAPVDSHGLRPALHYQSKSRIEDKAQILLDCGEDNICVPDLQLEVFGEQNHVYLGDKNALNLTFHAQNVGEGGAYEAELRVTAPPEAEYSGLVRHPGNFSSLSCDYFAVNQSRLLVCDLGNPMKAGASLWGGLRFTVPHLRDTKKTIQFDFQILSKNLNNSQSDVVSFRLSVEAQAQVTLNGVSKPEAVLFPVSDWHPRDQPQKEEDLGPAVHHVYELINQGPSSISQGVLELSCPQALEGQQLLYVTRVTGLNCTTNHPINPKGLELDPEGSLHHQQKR
- Sequence (P08648 895-1049 limits assumed): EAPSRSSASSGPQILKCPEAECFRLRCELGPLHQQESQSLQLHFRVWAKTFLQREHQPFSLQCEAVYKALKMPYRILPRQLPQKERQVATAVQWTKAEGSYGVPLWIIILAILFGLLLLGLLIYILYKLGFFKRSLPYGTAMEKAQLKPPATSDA
- assay info: Inhibition of human integrin alpha-5-beta-1 receptor mediated WM115 cell adhesion to vitronectin
- Format: cell-based, WM-115
measurement name: IC50 (nM)

[[record]]
smiles_record = "COC(=O)[C@H]1[C@@H]2NC(=O)[C@H](CC(=O)O)NC(=O)CNC(=O)[C@H](CCCNC(=N)N)NC(=O)[C@H](C(C)C)NC(=O)[C@@H]21"
measurement_name = "IC50"
observed_value = 1500

